B1: NF2 (merlin) isoform 7, human, full length (507 aa, lacks exons 2-3 = isoform-1 residues 39-121; exon-16 C-terminus), P35240-4 (parent)
chain: MAGAIASRMSFSSLKRKQPKTFTVRIVTMDAEMEFNCEVKKQILDEKIYCPPEASVLLASYAVQAKYGDYDPSVHKRGFLAQEELLPKRVINLYQMTPEMWEERITAWYAEHRGRARDEAEMEYLKIAQDLEMYGVNYFAIRNKKGTELLLGVDALGLHIYDPENRLTPKISFPWNEIRNISYSDKEFTIKPLDKKIDVFKFNSSKLRVNKLILQLCIGNHDLFMRRRKADSLEVQQMKAQAREEKARKQMERQRLAREKQMREEAERTRDELERRLLQMKEEATMANEALMRSEETADLLAEKAQITEEEAKLLAQKAAEAEQEMQRIKATAIRTEEEKRLMEQKVLEAEVLALKMAEESERRAKEADQLKQDLQEAREAERRAKQKLLEIATKPTYPPMNPIPAPLPPDIPSFNLIGDSLSFDFKDTDMKRLSMEIEKEKVEYMEKSKHLQEQLNELKTEIEALKLKERETALDILHNENSDRGGSSKHNTIKKPQAQGRRPICI

- Variants of: B1
- protocol-description: reverse yeast two-hybrid deep mutational scan (rY2H-seq): NF2 isoform 7 mutant library as bait mated with wild-type prey strains; selection on medium lacking adenine for non-interacting pairs; NextSeq paired-end sequencing; enrichment vs …
- condition-summary: with KDM1A (lysine-specific histone demethylase 1A; the table's label AOF2 is a gene synonym of KDM1A), O60341; yeast diploids after mating (RBait_S3 x RPrey_S3), 30 °C, selection for reporter genes on NB agar; human ABL2 co-expressed as the kinase-dead K35M mutant …; HIGHER = WEAKER BINDING (the opposite of display enrichments): higher = stronger loss of interaction: reverse Y2H selects yeast in which bait and prey do NOT interact (growth without adenine), so a …; hits-only table; scale: rY2H score; numbering: uniprot, sequence starts at 1
property: enrichment

a = A378T
b = E259V
Kindly compare a with b and tell me which has the lower enrichment figure. State your choice using its label.
a

I = P192S
II = E359K
Kindly compare I with II and tell me which has the lower enrichment figure. State your choice using its label.
I
(I: 1.69, II: 7.74)
